# credit: patent US20250025443A1

Hi there, I'd appreciate the recorded IC50 for every entry that follows.
- measured.on: SARS-CoV-2 Papain-Like Protease (PLpro) (Severe acute respiratory syndrome coronavirus 2 (2019-nCoV) (SARS-CoV-2), UniProt P0DTD1)
- method: biochemical
- measurement.parameters: SARS-CoV-2 PLpro enzymatic fluorescence assay; read-out: PLpro IC50

Answered cases to consult:
>  <compound>
Cc1ccc(N)cc1C(=O)NC(C#N)c1cccc2ccccc12 (centres unmarked)

>  <IC50>
> 5 µM

$$$$
>  <compound>
Cc1cc2cccnc2cc1C(=O)N[C@H](C)c1cccc(-c2ccc(CN[C@H]3CC[C@@H](O)C3)s2)c1

>  <IC50>
1 to 5 µM

$$$$
>  <compound>
Cc1ccc(OCCN(C)C)cc1C(=O)NC1(c2ccc(OCc3ccccc3)cc2)CC1

>  <IC50>
> 5 µM

$$$$
>  <compound>
Cc1ccc(OCCN)cc1C(=O)NC1(c2cccc3ccccc23)CC1

>  <IC50>
< 0.1 µM

$$$$
>  <compound>
Cc1ccc(OCCN(C)C)cc1C(=O)NC1(c2cc(-c3cccs3)cc3ccccc23)CC1

>  <IC50>
< 0.1 µM

$$$$
>  <compound>
Cc1ccc(OCCNCC(F)(F)F)cc1C(=O)NC1(c2cccc3ccccc23)CC1

>  <IC50>
0.1 to 1 µM

$$$$

Items follow; give IC50 for each.
1. Cc1ccc(CC(N)=O)cc1C(=O)NC1(c2cccc3ccccc23)CC1
2. Cc1ccc(OCC(C)N)cc1C(=O)NC1(c2cccc3ccccc23)CC1 (centres unmarked)

["0.1 to 1 µM", "< 0.1 µM"]

----------
Hi there, I'd appreciate the recorded IC50 for every entry that follows.
- measured.on: SARS-CoV-2 Papain-Like Protease (PLpro) (Severe acute respiratory syndrome coronavirus 2 (2019-nCoV) (SARS-CoV-2), UniProt P0DTD1)
- method: biochemical
- measurement.parameters: SARS-CoV-2 PLpro enzymatic fluorescence assay; read-out: PLpro IC50

>  <compound>
Cc1ccc(OCCN(C)C)cc1C(=O)NC1(c2ccccc2Oc2ccccc2)CC1

>  <reported.value>
1000 to 5000 nM

$$$$

Items follow; give IC50 for each.
1. Cc1ccc(OCCN(C)C)cc1C(=O)NC1(c2cccc(C)c2C)CC1
2. Cc1cc2c(C)c[nH]c2cc1C(=O)NC1(c2cccc3ccccc23)CC1
3. Cc1ccc(OCCN(C)C)cc1C(=O)NC1(c2ccccc2-c2ccccc2)CC1

["1000 to 5000 nM", "100 to 1000 nM", "> 5000 nM"]

Items follow; give IC50 for each.
1. CC(=O)Nc1cc(C2(NC(=O)c3cc(OC[C@@H]4CCN4C)ccc3C)CC2)c2cccnc2c1
2. COCc1cc2cc(C)c(C(=O)NC3(c4cccc5ccccc45)CC3)cc2[nH]1
3. Cc1ccc(OC2CCCNC2)cc1C(=O)NC1(c2cccc3ccccc23)CC1 (centres unmarked)
4. COc1cc(C2(NC(=O)c3cc(OCC4CCN4C)ccc3C)CC2)c2ccc(F)cc2n1 (centres unmarked)
5. Cc1ccc(OCC2CCN2C)cc1C(=O)N[C@@H](c1cccc2ccccc12)C(F)(F)F (some centres unmarked)
6. Cc1cc2cc(CN3CCOCC3)[nH]c2cc1C(=O)N[C@H](C)c1cccc2ccccc12

1: < 100 nM; 2: 100 to 1000 nM; 3: 100 to 1000 nM; 4: < 100 nM; 5: < 100 nM; 6: 1000 to 5000 nM

Items follow; give IC50 for each.
1. Cc1ccc(OCC(C)(C)N)cc1C(=O)NC1(c2cccc3ccccc23)CC1
2. C[C@@H](NC(=O)c1ccc2nc[nH]c2c1)c1cccc2ccccc12
3. Cc1ccc(OCC2CC(C)(C)N2)cc1C(=O)NC1(c2cccc3ccccc23)CC1 (centres unmarked)
4. Cc1ccc(OCCN(C)C)cc1C(=O)NC1(c2cccc3ncccc23)CC1

< 100 nM
> 5000 nM
< 100 nM
< 100 nM

Items follow; give IC50 for each.
1. COc1ccc2c(C3(NC(=O)c4cc(OC[C@@H]5CCN5C)ccc4C)CC3)cccc2n1
2. Cc1ccc(OC[C@@H]2CCN2C)cc1C(=O)NC1(c2cccc3nc(N(C)C)ccc23)CC1

["< 100 nM", "< 100 nM"]

Record CC(c1cccc2cnccc12)N1CCC(C(=O)NCc2cccc(F)c2)CC1 (centres unmarked) , field IC50: > 5000 nM
